# key: entry, value: pIC50
- System: HFF-1 cells
- assay-summary: HFF-1 host cell growth after 5 days (Trypan blue exclusion count)
- Assay type: cell-based, human
- test-context: Homo sapiens, HFF-1, 120 h, monotherapy; HFF-1 growth, 5 days; read-out: IC50 Monotherapy HFF-1 (n = 3)
pIC50: −log10 of the molar value.
experimental-endpoint: pIC50

1) O=C(Cn1ccnc1[N+](=O)[O-])NCc1ccccc1 = 6.05
2) Cc1cnc(C(=O)NCCc2ccc(S(=O)(=O)NC(=O)NC3CCCCC3)cc2)cn1 [GPZ, glipizide] = 4.46

----------
# key: entry, value: decrease of the infection (blood trypomastigotes)
- Test system: T. cruzi Ninoa strain
- assay-summary: Short-term monotherapy in mice infected with T. cruzi; blood trypomastigote count
- Type: in vivo, CD1 mice
- test-context: single dose 100 mg/kg, intragastric, at peak of parasitemia, 8 h compared to time 0
experimental-endpoint: decrease of the infection (blood trypomastigotes)

1. COc1ccc(Cl)cc1C(=O)NCCc1ccc(S(=O)(=O)NC(=O)NC2CCCCC2)cc1 [GBD, glyburide] = 60%
2. Cc1cnc(C(=O)NCCc2ccc(S(=O)(=O)NC(=O)NC3CCCCC3)cc2)cn1 [GPZ, glipizide] = 60%
3. O=C(Cn1ccnc1[N+](=O)[O-])NCc1ccccc1 [BNZ, benznidazole] = 80%

These entries and their values trace back to paper PMC11768481.
